B1: TPR t1 (parent)
chain: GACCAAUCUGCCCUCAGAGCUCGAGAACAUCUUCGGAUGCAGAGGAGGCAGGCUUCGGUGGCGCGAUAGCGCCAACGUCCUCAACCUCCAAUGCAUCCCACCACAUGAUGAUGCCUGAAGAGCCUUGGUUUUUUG

# Variants of: B1
# METHOD: polymerase ribozyme fitness, log enrichment relative to wild type (log ratio); higher = more active; in vitro selection for triplet polymerase activity
Record satisfied whenever polymerase ribozyme fitness (log ratio) is at -4 or higher; record not satisfied when lower.

INSERT INTO results (variant_code, category) VALUES
  ('C15U G69U C102A', 'satisfied'),
  ('C15U C79U', 'satisfied'),
  ('U9C U78G U81A', 'satisfied'),
  ('A2G C3G C31G A43U G60U C94U C114G', 'not satisfied');

API: above_or_equal(metric=polymerase ribozyme fitness (log ratio), cutoff=-4) for item C12A C34G G122U
not satisfied

API: above_or_equal(metric=polymerase ribozyme fitness (log ratio), cutoff=-4) for item A41U C102U
satisfied

API: above_or_equal(metric=polymerase ribozyme fitness (log ratio), cutoff=-4) for item G69C C70G C82A
not satisfied

API: above_or_equal(metric=polymerase ribozyme fitness (log ratio), cutoff=-4) for item C94U C99U U125A
satisfied

API: above_or_equal(metric=polymerase ribozyme fitness (log ratio), cutoff=-4) for item C97G C123A
not satisfied

API: above_or_equal(metric=polymerase ribozyme fitness (log ratio), cutoff=-4) for item C40G A84G
satisfied

API: above_or_equal(metric=polymerase ribozyme fitness (log ratio), cutoff=-4) for item A2G A50C A75G G113U
satisfied

API: above_or_equal(metric=polymerase ribozyme fitness (log ratio), cutoff=-4) for item A37G U87C A95G A100U U130A
satisfied
